Tested on: U251 CNS
Test: NCI-60 one-dose screen, 48 h (100 = growth as untreated, 0 = no growth, -100 = all killed)
Settings: 10 µM
Method: Growth inhibition of the U251 human tumor cell line is measured as a screen for anti-cancer activity. Cells are grown in 96 well plates and exposed to the test compound for 48 hours. Compounds are tested at a single concentration, which is 10^-5 M for most compounds. The reported endpoint is percent growth (GI% or GIPRCNT), where numbers from 0 - 100% represent growth inhibition, and numbers from -100% - 0 represent cell death. For example, a value of 40 represents 60% growth inhibition. […]
The panel holds about 83,000 compounds, 20% with a hit somewhere; the sample as a whole holds those more often.
OBSERVED PROPERTY: growth (%)

1. Nc1nc(N)c2cc(Sc3ccc4ccccc4c3)ccc2n1    27.4
2. O=C(O)c1ccccc1.[Ag]    97
3. ClCCn1c(CCl)nc2ccc(Cl)cc21    -67.2
4. Cn1ncc2cc3c(Nc4ccc(Cl)cc4)cccc3nc21    81.2
5. COc1cccc(C(c2cc3c(cc2O)OCO3)N2CCOCC2)c1OC (stereo not given)    101
6. O=C1C(Cl)=C(Cl)C(Cl)(Cl)C(Cl)C1(Cl)Cl (stereo not given)    103
7. S=C1SCN(CCc2ccccc2)CN1CCc1ccccc1    91.3
8. C=C1N(C)c2ccc(Cl)cc2C1(C)C    22.8
9. Cc1cc(C)c(N2C(=O)CC(Sc3ccccc3N)C2=O)c(C)c1 (stereo not given)    81.3
10. Cc1cc(N=C2C=CC(=[N+](C)C)C=C2)c(N)cc1N    93.2

---

Test system: HS 578T breast
Assay: NCI-60 one-dose screen, 48 h (100 = growth as untreated, 0 = no growth, -100 = all killed)
Details: 10 µM
The panel holds about 83,000 compounds, 20% with a hit somewhere; the sample as a whole holds those more often.
growth values, listed per item
OBSERVED PROPERTY: growth (%)

1) Cc1cc(O)c2c(c1O)C(=O)C13C(=C2O)C(=O)C2C(O)C1C1C(O)C3C(=O)C3=C(O)c4c(O)cc(C)c(O)c4C(=O)C321 (stereo not drawn)    -55.2
2) N#C/C(=C/N1C(=O)/C(=C/c2ccc([N+](=O)[O-])cc2)SC1=S)c1nc2ccccc2s1    90.4
3) CCOC(=O)[C@]1(Br)CC[C@@]1(Br)C(=O)OCC    102

---

Test system: K-562 leukemia
Assay: NCI-60 one-dose screen, 48 h
Settings: 10 µM
About 83,000 compounds went through this panel and 20% of them were active in at least one assay; those are over-represented in the sample as a whole. The source made the active and inactive calls. How the source made its calls: active means growth percent below 10; inactive means the rest.
Outcome codes: active, inactive

1. CCC(C)(c1ccc(O)c(C)c1)c1ccc(O)c(C)c1    inactive
2. Cc1cc(Cl)ccc1NC(=O)/C(Cl)=C1/Sc2ccccc2NC1=O    inactive
3. CN(C)c1ccc(/C=C/c2ccnc3ccccc23)cc1N    inactive
4. O=S(=O)(c1cc(Cl)ccc1O)c1cc(Cl)ccc1O    inactive
5. CCOC(=O)[C@]1(Br)CC[C@@]1(Br)C(=O)OCC    inactive
6. O=C(NC(=S)Nc1ccccn1)c1ccccc1    inactive
7. COc1ccc2c(c1)[nH]c1c(/C=C/c3ccccc3)nccc12    inactive
8. Cc1cc(N=C2C=CC(=[N+](C)C)C=C2)c(N)cc1N    inactive
9. Cc1c(-c2ccccc2)[nH]c2ccccc12    inactive
10. CCC(=O)Oc1ccc(/C=N/NC(N)=S)nc1    inactive
11. CN(CC(=O)O)c1ccc(/C=C/c2ccnc3ccccc23)cc1    inactive
12. N#C/C(=C/N1C(=O)/C(=C/c2ccc([N+](=O)[O-])cc2)SC1=S)c1nc2ccccc2s1    inactive
13. O=C1C(Cl)=C(Cl)C(Cl)(Cl)C(Cl)C1(Cl)Cl (stereo unspecified)    inactive
14. O=C1c2ccccc2CCC1(Br)Br    active
15. S=C1SCN(CCc2ccccc2)CN1CCc1ccccc1    inactive
16. O=C(O)c1ccccc1.[Ag]    inactive

---

System: NCI-H322M lung
Test: NCI-60 one-dose screen, 48 h
Conditions: 10 µM
About 83,000 compounds went through this panel and 20% of them were active in at least one assay; those are over-represented in the sample as a whole. Calls of active or inactive are those of the source. The calls were made as follows: active = growth percent below 10; inactive = the rest.
Labels: Yes (active), No (inactive)

1) COc1ccc(N)c2c1C(=O)c1ccccc1C2=O    No
2) Cn1ncc2cc3c(Nc4ccc(Cl)cc4)cccc3nc21    No
3) CCC(C)(c1ccc(O)c(C)c1)c1ccc(O)c(C)c1    No
4) CN(C)c1ccc(/C=C/c2ccnc3ccccc23)cc1N    No
5) O=[N+]([O-])c1cc(S(=O)(=O)Nc2ccccc2)ccc1Cl    No
6) CC[C@@]1(OC(=O)CN(C)C)C(=O)OCc2c1cc1n(c2=O)Cc2cc3c(N)cccc3nc2-1    Yes
7) COc1ccc2oc(-c3ccc(Cl)cc3)c(N3CCN(C)CC3)c2c1    No
8) COc1cccc(C(c2cc3c(cc2O)OCO3)N2CCOCC2)c1OC (stereo unspecified)    No
9) O=C1c2ccccc2CCC1(Br)Br    No
10) O=c1[nH]cc(/C=N\Nc2ccccc2)c(=O)[nH]1    No
11) CCOC(=O)[C@]1(Br)CC[C@@]1(Br)C(=O)OCC    No
12) O=C(CNS(=O)(=O)Cc1ccccc1)NNc1ccccc1    No
13) O=C1C=CC(=O)N1c1ccc(N2C(=O)C=CC2=O)cc1    No
14) Cc1cc(C)c(N2C(=O)CC(Sc3ccccc3N)C2=O)c(C)c1 (stereo unspecified)    No
15) Cc1cc(Cl)ccc1NC(=O)/C(Cl)=C1/Sc2ccccc2NC1=O    No
16) O=C(O)c1ccccc1.[Ag]    No
17) CN(C)CCNc1cccc2sc3ccc(O)cc3c(=O)c12    No
18) CN(CC(=O)O)c1ccc(/C=C/c2ccnc3ccccc23)cc1    No
19) N#CC(=C1C=CC(=NO)C=C1)c1ccccc1    No
20) CCC(=O)Oc1ccc(/C=N/NC(N)=S)nc1    No
21) NCc1c(O)ccc2ccccc12    No

---

Tested on: MOLT-4 leukemia
Assay: NCI-60 one-dose screen, 48 h (100 = growth as untreated, 0 = no growth, -100 = all killed)
Conditions: 10 µM unless noted
The panel holds about 83,000 compounds, 20% with a hit somewhere; the sample as a whole holds those more often. The source made the active and inactive calls. The calls were made as follows: active = growth percent below 10; inactive = the rest.
Below is a list of entries, each paired with its recorded growth value.
OBSERVED PROPERTY: growth

1. O=c1[nH]cc(/C=N\Nc2ccccc2)c(=O)[nH]1    49.6% (inactive)
2. CCC(=O)Oc1ccc(/C=N/NC(N)=S)nc1    10.8% (inactive)
3. N#CC(=C1C=CC(=NO)C=C1)c1ccccc1    19.2% (inactive)
4. Cc1cc(Cl)ccc1NC(=O)/C(Cl)=C1/Sc2ccccc2NC1=O    83.5% (inactive)
5. CC1CCC2(C(=O)O)CCC3(C)C(=CCC4C5(C)CC(O)C(O)C(C)(CO)C5C(O)CC43C)C2C1C (stereo not given)    113% (inactive)

---

System: MDA-MB-231 breast
Experiment: NCI-60 one-dose screen, 48 h
Conditions: 10 µM
Compounds without any hit were thinned out: in the full panel of roughly 83,000, 20% have a hit. Calls of active or inactive are those of the source. How the source made its calls: active means growth percent below 10; inactive means the rest.
Classes used: y = active, n = inactive

1) Cc1cc(C)c(N2C(=O)CC(Sc3ccccc3N)C2=O)c(C)c1 (centres undefined)    n
2) COc1ccc2oc(-c3ccc(Cl)cc3)c(N3CCN(C)CC3)c2c1    y
3) CC[C@@]1(OC(=O)CN(C)C)C(=O)OCc2c1cc1n(c2=O)Cc2cc3c(N)cccc3nc2-1    n
4) O=Nc1ccc(Nc2ccccc2)cc1    n

---

Tested on: KM12 colon
Experiment: NCI-60 one-dose screen, 48 h (100 = growth as untreated, 0 = no growth, -100 = all killed)
Details: 10 µM
Compounds without any hit were thinned out: in the full panel of roughly 83,000, 20% have a hit.
growth strictly under 50% means 1.0; at 50% or over means 0.0.

1) O=C1C=CC(=O)N1c1ccc(N2C(=O)C=CC2=O)cc1    0.0
2) Cc1c(-c2ccccc2)[nH]c2ccccc12    0.0
3) CC[C@@]1(OC(=O)CN(C)C)C(=O)OCc2c1cc1n(c2=O)Cc2cc3c(N)cccc3nc2-1    1.0
4) Cc1cc(Cl)ccc1NC(=O)/C(Cl)=C1/Sc2ccccc2NC1=O    0.0
5) N#CC(=C1C=CC(=NO)C=C1)c1ccccc1    1.0
6) O=[N+]([O-])c1cc(S(=O)(=O)Nc2ccccc2)ccc1Cl    0.0
7) O=C(CNS(=O)(=O)Cc1ccccc1)NNc1ccccc1    1.0

These measurements were taken from PubChem BioAssay (NCI).
